Biological target: human GLP-1 receptor (human, UniProt P43220 24-463)
Test: cell-based or functional assay
outcome-measure: cAMP Emax (1.0% HSA) (%)
Output spec: scalar in %, unitless text.

Sample records with cAMP Emax (1.0% HSA):
* YXEGTXTSDXXIXLDXIAQXKFIXXLIEGGPSSGAPPPSK (Y-Aib-EGT-αMeF(2F)-TSD-4Pal-Aib-I-αMeL-LD-Orn-IAQ-Aib-K((2-[2-(2-Amino-ethoxy)-ethoxy]-acetyl)2-(γ-Glu)-(10-(4-carboxyphenoxy)decanoyl))FI-(D-Glu)-αMeY-LIEGGPSSGAPPPSK((2-[2-(2-Amino-ethoxy)-ethoxy]-acetyl)2-(γ-Glu)-(10-(4-carboxyphenoxy)decanoyl))-NH2) [Example 248] | 92.7
* YXEGTXTSDXXIXLDXKAQXXFIXXLIKGGPSSGAPPPS (Y-Aib-EGT-αMeF(2F)-TSD-4Pal-Aib-I-αMeL-LD-Orn-K((2-[2-(2-Amino-ethoxy)-ethoxy]-acetyl)2-(α-Glu)-(10-(4-carboxyphenoxy)decanoyl))AQ-Aib-Om-FI-(D-Glu)-αMeY-LIK((2-[2-(2-Amino-ethoxy)-ethoxy]-acetyl)2-(γ-Glu)-(10-(4-carboxyphenoxy)decanoyl))GGPSSGAPPPS-NH2) [Example 351] | 91
* YXEGTXTSDXSIXLDXIAQXEFIKXLIKGGPSSGAPPPS (Y-Aib-EGT-αMeF(2F)-TSD-4Pal-SI-αMeL-LD-Orn-IAQ-Aib-EFIK(2-[2-(2-Amino-ethoxy)-ethoxy]-acetyl)2-(γ-Glu)-(11-(4-carboxyphenoxy)undecanoyl)-αMeY-LIK((2-[2-(2-Amino-ethoxy)-ethoxy]-acetyl)2-(γ-Glu)-(11-(4-carboxyphenoxy)undecanoyl)GGPSSGAPPPS-NH2)) [Example 286] | 90.3
* YXEGTXTSDXSIXLDXIAQXEFIXXLIKGGPSSGAPPPSK (Y-Aib-EGT-αMeF(2F)-TSD-4Pal-SI-αMeL-LD-Orn-IAQ-Aib-EFI-(D-Glu)-αMeY-LIK((2-[2-(2-Amino-ethoxy)-ethoxy]-acetyl)3-(γ-Glu)-CO-(CH2)12-CO2H)GGPSSGAPPPSK((2-[2-(2-Amino-ethoxy)-ethoxy]-acetyl)3-(γ-Glu)-CO-(CH2)12-CO2H)-NH2) [Example 229] | 99
* YXEGTXTSDYXIXLDXKAQXEFIXXLIEGGPSSGAPPPSK (Y-Aib-EGT-αMeF(2F)-TSDY-Aib-I-αMeL-LD-Orn-K((2-[2-(2-Amino-ethoxy)-ethoxy]-acetyl)2-(γ-Glu)-CO-(CH2)10-CH3)AQ-Aib-EFI-(D-Glu)-αMeY-LIEGGPSSGAPPPSK((2-[2-(2-Amino-ethoxy)-ethoxy]-acetyl)2-(γ-Glu)-CO-(CH2)10-CH3)-NH2) [Example 302] | 99.4

Problem: What does the data say about its cAMP Emax (1.0% HSA)? Entry: YXEGTXTSDXSIXLDXKAQXXFIXXLIKGGPSSGAPPPS (Y-Aib-EGT-αMeF(2F)-TSD-4Pal-SI-αMeL-LD-Orn-K((2-[2-(2-Amino-ethoxy)-ethoxy]-acetyl)2-(γ-Glu)-CO-(CH2)10-CH3)AQ-Aib-Orn-FI-(D-Glu)-αMeY-LIK((2-[2-(2-Amino-ethoxy)-ethoxy]-acetyl)2-(γ-Glu)-CO-(CH2)10-CH3)GGPSSGAPPPS-NH2) [Example 299]
Result: 102

Problem: What does the data say about its cAMP Emax (1.0% HSA)? Entry: YXEGTXTSDXSIXLDXIAQXKFIXXLIKGGPSSGAPPPS (Y-Aib-EGT-αMeF(2F)-TSD-4Pal-SI-αMeL-LD-Orn-IAQ-Aib-K((2-[2-(2-Amino-ethoxy)-ethoxy]-acetyl)2-CO-(CH2)12-CO2H)Fl-(D-Glu)-αMeY-LIK((2-[2-(2-Amino-ethoxy)-ethoxy]-acetyl)2-CO-(CH2)12-CO2H)GGPSSGAPPPS-NH2 …) [Example 222]
Result: 117

Problem: What does the data say about its cAMP Emax (1.0% HSA)? Entry: YXEGTXTSDXSIXLDXIAQXKFIXXLIEGGPSSGAPPPSK (Y-Aib-EGT-αMeF(2F)-TSD-4Pal-SI-αMeL-LD-Orn-IAQ-Aib-K((2-[2-(2-Amino-ethoxy)-ethoxy]-acetyl)3-(γ-Glu)-CO-(CH2)12-CO2H)FI-(D-Glu)-αMeY-LIEGGPSSGAPPPSK((2-[2-(2-Amino-ethoxy)-ethoxy]-acetyl)3-(γ-Glu)-CO-(CH2)12-CO2H)-NH2) [Example 228]
Result: 119

Problem: What does the data say about its cAMP Emax (1.0% HSA)? Entry: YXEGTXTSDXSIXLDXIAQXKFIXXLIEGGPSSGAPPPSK (Y-Aib-EGT-αMeF(2F)-TSD-2Nal-SI-αMeL-LD-Orn-IAQ-Aib-K((2-[2-(2-Amino-ethoxy)-ethoxy]-acetyl)2-(γ-Glu)-CO-(CH2)12-CO2H)FI-(D-Glu)-αMeY-LIEGGPSSGAPPPSK((2-[2-(2-Amino-ethoxy)-ethoxyl-acetyl)2-(γ-Glu)-CO-(CH2)12-CO2H)-NH2) [Example 254]
Result: 122
